Reference source: BindingDB's records for doi:10.1016/j.bmc.2004.10.008

Biological target: Sphingosine 1-phosphate receptor 3 (Homo sapiens)
Sequence (Q99500 whole entry): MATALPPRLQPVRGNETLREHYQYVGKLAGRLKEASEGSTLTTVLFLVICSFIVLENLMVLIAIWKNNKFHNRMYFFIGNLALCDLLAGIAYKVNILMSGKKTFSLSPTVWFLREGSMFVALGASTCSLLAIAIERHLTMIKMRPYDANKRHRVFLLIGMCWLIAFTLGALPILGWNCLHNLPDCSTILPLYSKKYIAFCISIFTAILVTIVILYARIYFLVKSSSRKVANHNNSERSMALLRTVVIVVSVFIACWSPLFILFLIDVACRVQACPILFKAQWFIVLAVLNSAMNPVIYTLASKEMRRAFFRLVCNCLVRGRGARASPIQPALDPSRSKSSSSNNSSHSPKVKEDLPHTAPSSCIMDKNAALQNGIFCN
endpoint_name: Ki (nM)
Numbers only, in nM.

Ki recorded for this compound, CCCCCCCCCCCCC/C=C\C(O)C(N)COP(=O)(O)O (stereo unspecified) , is 5.4

----------
Biological target: Sphingosine 1-phosphate receptor 1 (Homo sapiens, UniProt P21453)
Sequence (P21453 whole entry): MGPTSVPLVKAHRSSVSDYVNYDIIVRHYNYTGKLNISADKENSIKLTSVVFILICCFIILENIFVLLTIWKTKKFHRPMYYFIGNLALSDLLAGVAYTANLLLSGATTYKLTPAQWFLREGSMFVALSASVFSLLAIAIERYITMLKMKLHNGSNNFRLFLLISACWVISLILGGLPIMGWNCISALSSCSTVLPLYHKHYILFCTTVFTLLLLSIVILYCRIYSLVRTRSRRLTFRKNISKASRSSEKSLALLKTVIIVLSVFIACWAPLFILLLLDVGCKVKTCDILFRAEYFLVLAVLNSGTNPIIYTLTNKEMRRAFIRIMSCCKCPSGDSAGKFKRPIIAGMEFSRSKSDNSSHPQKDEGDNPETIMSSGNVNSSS
endpoint_name: pKi
One number for each entry, as −log10 of the molar value.

pKi recorded for this molecule, CCCCCCCCCCCCC/C=C\C(O)C(N)COP(=O)(O)O (stereo unspecified) , is 8.92
